// provenance: ChEMBL document CHEMBL1126152

The reader will find reported T1/2 values listed item by item below.
species on record: Mus musculus; conditions: in vivo
Answer by giving the amount and then stating its unit.

// known answers, use as guide
- compound: "Cc1c(F)c(N2CC3CC2CN3)nc2c1c(=O)c(C(=O)O)cn2-c1ccc(F)cc1F (centres undefined)"
  resultType: "T1/2"
  assayResult: "2.08 h"
- compound: "O=C(O)c1cn(-c2ccc(F)cc2F)c2nc(N3CC4CC3CN4)c(F)cc2c1=O (centres undefined)"
  resultType: "T1/2"
  assayResult: "1.48 h"
- compound: "NC1CCN(c2nc3c(cc2F)c(=O)c(C(=O)O)cn3-c2ccc(F)cc2F)C1 (centres undefined) [TOSUFLOXACIN]"
  resultType: "T1/2"
  assayResult: "1.38 h"

Per the record, CC(C)(C)n1cc(C(=O)O)c(=O)c2cc(F)c(N3CC4CC3CN4)nc21 (centres undefined) has T1/2 of 1.58 h
